Assay: Observed MRT (infinitive) in ICR mouse at 5 mg/kg, sc single dose measured upto 24 hrs
Assay type: ADME, organism-based
Details: in vivo
metric name: MRT inf (h)
Number in h, nothing else.

# input MRT inf for C=CC(=O)Nc1ccc(C(=O)Nc2n[nH]c3ccc(-c4cncc(NC[C@@H](O)c5ccccc5)c4)cc23)cc1 ?
# output 5

* * *

Test: AUClast in ICR mouse at 5 mg/kg, iv single dose measured upto 24 hrs
Format: ADME, organism-based
Design: dose 5 mg/kg, time < 24 hrs, route iv
Settings: in vivo
metric name: AUC(0-t) at 24 h (ng·h/mL)
Numbers only here, please. The scale is ng·h/mL.

# input Field request: AUC(0-t) at 24 h | item: C=CC(=O)Nc1ccc(C(=O)Nc2n[nH]c3ccc(-c4cncc(NC[C@@H](O)c5ccccc5)c4)cc23)cc1
# output 26900
